Provenance of the data: patent US20250188032A1

- System: GluN2B
- Method: Western blot of GluN2B protein in cultured fetal cortical cells
- Type: cell-based, mice
- Measurement Context: relative value, vehicle set to 1; treated for 24 hours; N 3 or more
- Description: The amount of GluN2B reacted with the compound of the present disclosure was measured using Western blot. […] The protein concentration was determined using a BCA protein assay kit (Pierce Biotechnology) using bovine serum albumin as a standard. […] Housekeeping protein β-actin was detected as a normalization control. […] Using the experimental procedure described in Example 3, it was determined whether various BnH12 series compounds increase GluN2B expression, and the results are shown in Table 6. […]
In this section we review reported GluN2B expression, Western blot results, Mean values for a set of compounds.
Quantity Measured: GluN2B expression, Western blot results, Mean

> print(dat)
                                   compound  quantitative.readout
1  C[C@H]1CC[C@@H](C(=O)[O-])CN1C(=O)Cc1ccccn1.[Na+] [BnH12039]                 1.103
2    C[C@H]1CCCCN1C(=O)Cc1cccnc1 [BnH12060]                 1.469
3  C[C@H]1CC[C@@H](C(=O)O)CN1C(=O)Cc1ccc(O)cc1 [BnH12079]                 1.062
4  C[C@@H]1CC[C@H](C(=O)O)CN1C(=O)Cc1ccc(F)cc1Cl [BnH12001 enantiomer (3S,6R, 98%<)]                 1.548
5  COc1ccc(CC(=O)N2C[C@@H](C(=O)O)CC[C@H]2C)cc1 [BnH12063]                 1.652
6  C[C@H]1CC[C@@H](C(=O)O)CN1C(=O)Cc1ccc(N)cc1 [BnH12070]                 1.302
7  COc1ccc(CC(=O)N2C[C@H](C(=O)O)CC[C@@H]2C)cc1 [BnH12025]                 1.582
8  C[C@H]1CC[C@@H](C(=O)O)CN1C(=O)Cc1ccc([N+](=O)[O-])cc1 [BnH12069]                 1.993
9  C[C@H]1CC[C@@H](C(=O)O)CN1C(=O)CC1CCCCC1 [BnH12006]                 1.238

* * *

- Tested on: 293T cells
- Method: Cytotoxicity test (CCK-8 cell viability) in 293T cells
- Assay type: cell-based, human
- Measurement Context: 10 uM, 24 hours co-incubation, 293T cell line, % of control
In this section we review reported Cell viability test results (CCK) 10 uM values for a set of compounds.
Quantity Measured: Cell viability test results (CCK) 10 uM (%<)

> print(dat)
                                    compound  subject.of.test                        quantity.measured  quantitative.readout
 1  COc1ccc(CC(=O)N2C[C@@H](C(=O)O)CC[C@H]2C)cc1       293T cells  Cell viability test results (CCK) 10 uM                    95
 2  CCC1CCC(C(=O)O)CN1C(=O)Cc1ccc(F)cc1Cl (stereo not shown)       293T cells  Cell viability test results (CCK) 10 uM                    80
 3  C[C@H]1CC[C@@H](C(=O)[O-])CN1C(=O)Cc1ccncc1.[Na+]       293T cells  Cell viability test results (CCK) 10 uM                    90
 4               C[C@H]1CCCCN1C(=O)Cc1cccnc1       293T cells  Cell viability test results (CCK) 10 uM                    99
 5  C[C@H]1CC[C@@H](C(=O)O)CN1C(=O)Cc1ccccc1       293T cells  Cell viability test results (CCK) 10 uM                    95
 6  C[C@H]1CC[C@@H](C(=O)[O-])CN1C(=O)Cc1cccnc1.[Na+]       293T cells  Cell viability test results (CCK) 10 uM                    85
 7  CCOC(=O)[C@@H]1CC[C@H](C)N(C(=O)Cc2ccc(F)cc2Cl)C1       293T cells  Cell viability test results (CCK) 10 uM                    90
 8  C[C@H]1CC[C@@H](C(=O)O)CN1C(=O)Cc1ccc(Br)cc1       293T cells  Cell viability test results (CCK) 10 uM                    99
 9  COC(=O)[C@@H]1CC[C@H](C)N(C(=O)Cc2ccc(F)cc2Cl)C1       293T cells  Cell viability test results (CCK) 10 uM                    95
10  COc1ccc(CC(=O)N2C[C@H](C(=O)O)CC[C@@H]2C)cn1       293T cells  Cell viability test results (CCK) 10 uM                    99
11    O=C(NO)[C@@H]1CCCN1C(=O)Cc1ccc(F)cc1Cl       293T cells  Cell viability test results (CCK) 10 uM                    99
12  C[C@H]1CC[C@@H](C(=O)O)CN1C(=O)Cc1cccc(Cl)c1       293T cells  Cell viability test results (CCK) 10 uM                    99
13  C[C@H]1CC[C@@H](C(=O)O)CN1C(=O)Cc1cccc(N)c1       293T cells  Cell viability test results (CCK) 10 uM                    85
14  C[C@@H]1CC[C@H](C(=O)O)CN1C(=O)Cc1ccccc1       293T cells  Cell viability test results (CCK) 10 uM                    85
15   C[C@H]1CC[C@@H](C(=O)O)CN1C(=O)c1ccccc1       293T cells  Cell viability test results (CCK) 10 uM                    95
16  C[C@H]1CC[C@@H](C(=O)O)CN1C(=O)CC1CCCCC1       293T cells  Cell viability test results (CCK) 10 uM                    99
17  C[C@H]1CC[C@@H](C(=O)O)CN1C(=O)Cc1cccc([N+](=O)[O-])c1       293T cells  Cell viability test results (CCK) 10 uM                    85
18  C[C@H]1CC[C@@H](C(=O)O)CN1C(=O)Cc1ccc(C(C)(C)C)cc1       293T cells  Cell viability test results (CCK) 10 uM                    99
19     O=C(NO)[C@H]1CCCN1C(=O)Cc1ccc(F)cc1Cl       293T cells  Cell viability test results (CCK) 10 uM                    99

* * *

- System: 293T cells
- Method: Cytotoxicity test (CCK-8 cell viability) in 293T cells
- Format: cell-based, human
- Measurement Context: 100 uM, 24 hours co-incubation, 293T cell line, % of control
Quantity Measured: Cell viability test results (CCK) 100 uM (%<)

> print(dat)
                                   compound                         quantity.measured  measurement.units  quantitative.readout
1    O=C(NO)[C@@H]1CCCN1C(=O)Cc1ccc(F)cc1Cl  Cell viability test results (CCK) 100 uM                 %<                    90
2  C[C@H]1CC[C@@H](C(=O)O)CN1C(=O)Cc1cccc([N+](=O)[O-])c1  Cell viability test results (CCK) 100 uM                 %<                    85
3  C[C@H]1CC[C@@H](C(=O)[O-])CN1C(=O)Cc1cccnc1.[Na+]  Cell viability test results (CCK) 100 uM                 %<                    85
4  COC(=O)[C@@H]1CC[C@H](C)N(C(=O)Cc2ccc(F)cc2Cl)C1  Cell viability test results (CCK) 100 uM                 %<                    95
5  COc1ccc(CC(=O)N2C[C@H](C(=O)O)CC[C@@H]2C)cc1  Cell viability test results (CCK) 100 uM                 %<                    80
6  COc1ccc(CC(=O)N2C[C@@H](C(=O)O)CC[C@H]2C)cc1  Cell viability test results (CCK) 100 uM                 %<                    95
7  C[C@H]1CC[C@@H](C(=O)O)CN1C(=O)Cc1ccc(F)cc1  Cell viability test results (CCK) 100 uM                 %<                    75
8               C[C@H]1CCCCN1C(=O)Cc1cccnc1  Cell viability test results (CCK) 100 uM                 %<                    99
9  C[C@@H]1CC[C@H](C(=O)O)CN1C(=O)Cc1ccc(F)cc1Cl [BnH12001 enantiomer (3S,6R, 98%<)]  Cell viability test results (CCK) 100 uM                 %<                    95
